Reference source: patent US10947207B2

# experimentalProtocol: Pharmacokinetic study, brain and plasma levels in mice
# Assay type: in vivo, mouse
# testSettings: mouse, brain, subcutaneous, 10 mg/kg, SQ 10 mg/kg, at 2 h, read-out: Cmax for brain
readoutName: Cmax (ng/g)
All answers are understood in ng/g, so give the number only.

What value of Cmax has been recorded for this entry: Fc1ccc(Nc2nc(-c3ccccc3)cs2)cc1 161
